Below is a list of entries, each paired with its recorded MIC value.
- Tested on: Mycobacterium tuberculosis
- EXPERIMENTAL_DETAILS: Antimycobacterial activity against multidrug-resistant Mycobacterium tuberculosis clinical isolate assessed as growth inhibition after 5 days by MTT assay
- Format: functional
- TEST_PARAMETERS: 120 h
PROPERTY_MEASURED: MIC

COMPOUND_STRING: Cc1c(C(=O)N/N=C/c2ccc3no[n+]([O-])c3c2)no[n+]1[O-]
MEASUREMENT: 82.2 µM

COMPOUND_STRING: COc1ccc(/C=N/NC(=O)c2no[n+]([O-])c2C)cc1OC
MEASUREMENT: > 81.6 µM

COMPOUND_STRING: Cc1nc2ccccn2c1C(=O)N/N=C/c1no[n+]([O-])c1C
MEASUREMENT: > 83.3 µM

COMPOUND_STRING: Cc1[nH]cnc1C(=O)N/N=C/c1c(-c2ccccc2)no[n+]1[O-]
MEASUREMENT: > 80.1 µM

COMPOUND_STRING: Cc1nc2ccccn2c1C(=O)N/N=C/c1ccc2no[n+]([O-])c2c1
MEASUREMENT: 38.6 µM

COMPOUND_STRING: CC(=O)Nc1ccc(/C=N/NC(=O)c2no[n+]([O-])c2C)cc1
MEASUREMENT: > 82.5 µM

COMPOUND_STRING: COc1cc(/C=N/NC(=O)c2no[n+]([O-])c2C)ccc1O
MEASUREMENT: > 85.6 µM

COMPOUND_STRING: Cc1c(C(=O)N/N=C/c2ccc([N+](=O)[O-])o2)no[n+]1[O-]
MEASUREMENT: 44.5 µM

COMPOUND_STRING: O=C(N/N=C/c1c(-c2ccccc2)no[n+]1[O-])c1cccnc1
MEASUREMENT: 20.2 µM

COMPOUND_STRING: O=C(N/N=C/c1ccc2nonc2c1)c1cccnc1
MEASUREMENT: 46.8 µM

COMPOUND_STRING: Cc1c(C(=O)N/N=C/c2cccc(O)c2)no[n+]1[O-]
MEASUREMENT: > 95.4 µM

COMPOUND_STRING: O=C(N/N=C/c1c(-c2ccccc2)no[n+]1[O-])c1cnn(-c2ccccc2)c1
MEASUREMENT: > 66.8 µM

COMPOUND_STRING: Cc1c(/C=N/NC(=O)c2no[n+]([O-])c2C)no[n+]1[O-]
MEASUREMENT: > 93.6 µM

COMPOUND_STRING: O=C(N/N=C/c1ccc2no[n+]([O-])c2c1)c1cnn(-c2ccccc2)c1
MEASUREMENT: > 17.9 µM

COMPOUND_STRING: COc1cc(/C=N/NC(=O)c2no[n+]([O-])c2C)cc(OC)c1OC
MEASUREMENT: > 74.4 µM

COMPOUND_STRING: Cc1c(C(=O)N/N=C/c2ccc(Br)cc2)no[n+]1[O-]
MEASUREMENT: > 74 µM

COMPOUND_STRING: O=C(N/N=C/c1ccc2no[n+]([O-])c2c1)c1ccncc1
MEASUREMENT: 11 µM

COMPOUND_STRING: Cc1c(C(=O)N/N=C/c2ccccn2)no[n+]1[O-]
MEASUREMENT: > 101 µM

COMPOUND_STRING: Cc1c(C(=O)N/N=C/c2ccc(N(C)C)cc2)no[n+]1[O-]
MEASUREMENT: > 86.5 µM

COMPOUND_STRING: O=C(N/N=C/c1ccc2no[n+]([O-])c2c1)c1ccc2c(c1)OCO2
MEASUREMENT: > 76.7 µM

COMPOUND_STRING: Cc1c(/C=N/NC(=O)c2cnn(-c3ccccc3)c2)no[n+]1[O-]
MEASUREMENT: > 80.1 µM

COMPOUND_STRING: Cc1c(/C=N/NC(=O)c2ccncc2)no[n+]1[O-]
MEASUREMENT: > 25.4 µM

COMPOUND_STRING: Cc1c(C(=O)N/N=C/c2ccc(C(F)(F)F)cc2)no[n+]1[O-]
MEASUREMENT: > 79.6 µM

COMPOUND_STRING: O=C(N/N=C/c1ccc2no[n+]([O-])c2c1)c1cccnc1
MEASUREMENT: 22.1 µM

COMPOUND_STRING: NNC(=O)c1ccncc1
MEASUREMENT: 45.6 µM

COMPOUND_STRING: Cc1c(C(=O)N/N=C/c2ccc([N+](=O)[O-])cc2)no[n+]1[O-]
MEASUREMENT: > 85.9 µM

COMPOUND_STRING: Cc1c(C(=O)N/N=C/c2ccccc2)no[n+]1[O-]
MEASUREMENT: > 102 µM

COMPOUND_STRING: Cc1nc2ccccn2c1C(=O)N/N=C/c1c(-c2ccccc2)no[n+]1[O-]
MEASUREMENT: 8.6 µM

COMPOUND_STRING: Cc1c(C(=O)N/N=C/c2ccco2)no[n+]1[O-]
MEASUREMENT: > 106 µM

COMPOUND_STRING: Cc1[nH]cnc1C(=O)N/N=C/c1no[n+]([O-])c1C
MEASUREMENT: > 100 µM

COMPOUND_STRING: COc1ccc(/C=N/NC(=O)c2no[n+]([O-])c2C)cc1O
MEASUREMENT: > 85.6 µM

COMPOUND_STRING: Cc1c(C(=O)N/N=C/c2ccc([N+](=O)[O-])s2)no[n+]1[O-]
MEASUREMENT: 42.1 µM

COMPOUND_STRING: O=C(N/N=C/c1ccc2nonc2c1)c1ccncc1
MEASUREMENT: > 93.6 µM

COMPOUND_STRING: O=C(N/N=C/c1c(-c2ccccc2)no[n+]1[O-])c1ccncc1
MEASUREMENT: 10.1 µM

COMPOUND_STRING: Cc1c(/C=N/NC(=O)c2ccc3c(c2)OCO3)no[n+]1[O-]
MEASUREMENT: > 86.2 µM

COMPOUND_STRING: Cc1c(C(=O)N/N=C/c2ccc(C(=O)O)cc2)no[n+]1[O-]
MEASUREMENT: > 86.2 µM

COMPOUND_STRING: Cc1c(C(=O)N/N=C/c2ccccc2O)no[n+]1[O-]
MEASUREMENT: > 95.4 µM

COMPOUND_STRING: Cc1c(C(=O)N/N=C/c2c(-c3ccccc3)no[n+]2[O-])no[n+]1[O-]
MEASUREMENT: > 75.8 µM

COMPOUND_STRING: Cc1[nH]cnc1C(=O)N/N=C/c1ccc2no[n+]([O-])c2c1
MEASUREMENT: 21.9 µM

COMPOUND_STRING: Cc1c(/C=N/NC(=O)c2cccnc2)no[n+]1[O-]
MEASUREMENT: > 101 µM

COMPOUND_STRING: O=C(N/N=C/c1c(-c2ccccc2)no[n+]1[O-])c1ccc2c(c1)OCO2
MEASUREMENT: > 71 µM

COMPOUND_STRING: Cc1c(C(=O)N/N=C/c2ccc3c(c2)OCO3)no[n+]1[O-]
MEASUREMENT: > 86.2 µM

====

- EXPERIMENTAL_DETAILS: Selectivity index, ratio of IC50 for mouse J774.1 cells to MIC for multidrug-resistant Mycobacterium tuberculosis clinical isolate
- Assay type: functional
Below is a list of entries, each paired with its recorded Selectivity Index value.

COMPOUND_STRING: Cc1nc2ccccn2c1C(=O)N/N=C/c1c(-c2ccccc2)no[n+]1[O-]
QUALIFIER_SYMBOL: =
Selectivity Index: 6.5
--
COMPOUND_STRING: Cc1nc2ccccn2c1C(=O)N/N=C/c1ccc2no[n+]([O-])c2c1
QUALIFIER_SYMBOL: =
Selectivity Index: 3.7
--
COMPOUND_STRING: O=C(N/N=C/c1c(-c2ccccc2)no[n+]1[O-])c1cccnc1
QUALIFIER_SYMBOL: =
Selectivity Index: 10
--
COMPOUND_STRING: O=C(N/N=C/c1c(-c2ccccc2)no[n+]1[O-])c1ccncc1
QUALIFIER_SYMBOL: >
Selectivity Index: 40
--
COMPOUND_STRING: Cc1[nH]cnc1C(=O)N/N=C/c1ccc2no[n+]([O-])c2c1
QUALIFIER_SYMBOL: =
Selectivity Index: 1.5
--
COMPOUND_STRING: O=C(N/N=C/c1ccc2no[n+]([O-])c2c1)c1cccnc1
QUALIFIER_SYMBOL: =
Selectivity Index: 1.4
--
COMPOUND_STRING: NNC(=O)c1ccncc1
QUALIFIER_SYMBOL: >
Selectivity Index: 9
--
COMPOUND_STRING: O=C(N/N=C/c1ccc2nonc2c1)c1cccnc1
QUALIFIER_SYMBOL: =
Selectivity Index: 5
--
COMPOUND_STRING: O=C(N/N=C/c1ccc2no[n+]([O-])c2c1)c1ccncc1
QUALIFIER_SYMBOL: =
Selectivity Index: 12
